System: Klebsiella pneumoniae
Test: Antimicrobial activity against Klebsiella pneumoniae assessed as zone of inhibition at 100 ug/well after 24 hrs by agar well diffusion method
Format: functional
Details: read-out: DIZ
measured_property: zone of inhibition at 100 µg/disc (mm)
Value expressed in mm; do not type the unit.

Req: Give zone of inhibition at 100 µg/disc for `O=C(NS(=O)(=O)/C=C/c1ccc([N+](=O)[O-])cc1)c1cccs1`
Resp: 31

Req: # return recorded zone of inhibition at 100 µg/disc for input O=C(NS(=O)(=O)C1C(c2ccccc2)=NN(c2ccccc2)C1c1ccccc1)c1ccc(Cl)s1 (centres undefined)
Resp: 11

Req: For the compound O=C(NS(=O)(=O)C1C(c2ccccc2)=NOC1c1ccccc1)c1ccc(Cl)s1 (centres undefined) , give its reported zone of inhibition at 100 µg/disc.
Resp: 12

Req: Tell me measured zone of inhibition at 100 µg/disc for `O=C(NS(=O)(=O)/C=C/c1ccccc1)c1cccs1` please.
Resp: 19

Req: Return zone of inhibition at 100 µg/disc for the following compound: `O=C(NS(=O)(=O)c1c(-c2ccccc2)noc1-c1ccccc1)c1cccs1`
Resp: 26

Req: Look up and state reported zone of inhibition at 100 µg/disc for `Cc1ccc(-c2onc(-c3ccccc3)c2S(=O)(=O)NC(=O)c2cccs2)cc1`
Resp: 21

Req: Answer with the recorded zone of inhibition at 100 µg/disc for the compound listed here: `O=C(NS(=O)(=O)c1c(-c2ccccc2)noc1-c1ccc([N+](=O)[O-])cc1)c1ccc(Cl)s1`
Resp: 38

Req: Please report the measured zone of inhibition at 100 µg/disc for O=C(NS(=O)(=O)C1C(c2ccccc2)=NN(c2ccccc2)C1c1ccc([N+](=O)[O-])cc1)c1ccc(Cl)s1 (centres undefined)
Resp: 14

Req: In one line, give reported zone of inhibition at 100 µg/disc of the entry `O=C(NS(=O)(=O)c1c(-c2ccccc2)nn(-c2ccccc2)c1-c1ccccc1)c1cccs1` .
Resp: 23

###

Test system: Penicillium chrysogenum
Assay: Fungicidal activity against Penicillium chrysogenum incubated for 48 hrs followed by replating on PDA and incubated for 48 hrs by broth dilution test
Format: functional
measured_property: MFC (µg/mL)
Response body: numeric value in µg/mL, unit text excluded.

Req: Consider the molecule `O=C(NS(=O)(=O)c1c(-c2ccccc2)noc1-c1ccc([N+](=O)[O-])cc1)c1ccc(Cl)s1` and give its recorded MFC.
Resp: 200

Req: Given `O=C(NS(=O)(=O)c1c(-c2ccccc2)nn(-c2ccccc2)c1-c1ccc([N+](=O)[O-])cc1)c1ccc(Cl)s1` , respond with its MFC.
Resp: 200

Req: Look up and report measured MFC for this entry: `O=C(NS(=O)(=O)c1c(-c2ccccc2)noc1-c1ccc([N+](=O)[O-])cc1)c1cccs1`
Resp: 200

###

Tested on: Penicillium chrysogenum
Assay: Antifungal activity against Penicillium chrysogenum assessed as zone of inhibition at 100 ug/well after 48 hrs by agar well diffusion method
Format: functional
Conditions: read-out: DIZ
Please go through the items and note down their zone of inhibition at 100 µg/disc.
Kindly provide the numeric value in mm only, without the unit symbol.

Req: Please give measured zone of inhibition at 100 µg/disc of the following entry: O=C(NS(=O)(=O)C1C(c2ccccc2)=NOC1c1ccc([N+](=O)[O-])cc1)c1ccc(Cl)s1 (stereo not drawn)
Resp: 12

Req: For the molecule `O=C(NS(=O)(=O)c1c(-c2ccccc2)noc1-c1ccc([N+](=O)[O-])cc1)c1cccs1` , report zone of inhibition at 100 µg/disc.
Resp: 30

Req: Please indicate zone of inhibition at 100 µg/disc recorded for O=C(NS(=O)(=O)C1C(c2ccccc2)=NN(c2ccccc2)C1c1ccccc1)c1ccc(Cl)s1 (stereo not drawn)
Resp: 9

Req: Give the value of zone of inhibition at 100 µg/disc reported for the following: `Cc1ccc(/C=C/S(=O)(=O)NC(=O)c2ccc(Cl)s2)cc1`
Resp: 12

Req: State its zone of inhibition at 100 µg/disc for this molecule: `O=C(NS(=O)(=O)/C=C/c1ccccc1)c1ccc(Cl)s1`
Resp: 17

Req: Output measured zone of inhibition at 100 µg/disc for this item: O=C(NS(=O)(=O)C1C(c2ccccc2)=NN(c2ccccc2)C1c1ccc([N+](=O)[O-])cc1)c1ccc(Cl)s1 (stereo not drawn)
Resp: 14

Req: Consider the molecule O=C(NS(=O)(=O)C1C(c2ccccc2)=NOC1c1ccc([N+](=O)[O-])cc1)c1cccs1 (stereo not drawn) and give its recorded zone of inhibition at 100 µg/disc.
Resp: 10

Req: Specify measured zone of inhibition at 100 µg/disc for `O=C(NS(=O)(=O)c1c(-c2ccccc2)nn(-c2ccccc2)c1-c1ccc([N+](=O)[O-])cc1)c1cccs1` .
Resp: 27

Req: For the molecule O=C(NS(=O)(=O)C1C(c2ccccc2)=NN(c2ccccc2)C1c1ccc([N+](=O)[O-])cc1)c1cccs1 (stereo not drawn) , give its measured zone of inhibition at 100 µg/disc value.
Resp: 12

Req: For the molecule `Cc1ccc(-c2c(S(=O)(=O)NC(=O)c3cccs3)c(-c3ccccc3)nn2-c2ccccc2)cc1` , report zone of inhibition at 100 µg/disc.
Resp: 10

Req: Determine from records and report zone of inhibition at 100 µg/disc for `Cc1ccc(-c2onc(-c3ccccc3)c2S(=O)(=O)NC(=O)c2ccc(Cl)s2)cc1`
Resp: 18

Req: Let me know recorded zone of inhibition at 100 µg/disc for `O=C(NS(=O)(=O)c1c(-c2ccccc2)noc1-c1ccccc1)c1ccc(Cl)s1` , thanks.
Resp: 22

Req: Specify reported zone of inhibition at 100 µg/disc for the molecule shown: `O=C(NS(=O)(=O)c1c(-c2ccccc2)noc1-c1ccc([N+](=O)[O-])cc1)c1ccc(Cl)s1`
Resp: 33

Req: Answer with the recorded zone of inhibition at 100 µg/disc of `Cc1ccc(-c2c(S(=O)(=O)NC(=O)c3ccc(Cl)s3)c(-c3ccccc3)nn2-c2ccccc2)cc1` only.
Resp: 13

Req: For the molecule `O=C(NS(=O)(=O)/C=C/c1ccccc1)c1cccs1` , give its measured zone of inhibition at 100 µg/disc value.
Resp: 11

Req: State its zone of inhibition at 100 µg/disc for this molecule: O=C(NS(=O)(=O)C1C(c2ccccc2)=NOC1c1ccccc1)c1ccc(Cl)s1 (stereo not drawn)
Resp: 7

Req: Item `Cc1ccc(-c2onc(-c3ccccc3)c2S(=O)(=O)NC(=O)c2cccs2)cc1` : provide zone of inhibition at 100 µg/disc
Resp: 16

Req: Note zone of inhibition at 100 µg/disc for the molecule shown: `O=C(NS(=O)(=O)c1c(-c2ccccc2)noc1-c1ccccc1)c1cccs1`
Resp: 19
